biological target: Dual specificity protein kinase CLK2 (Homo sapiens); experiment: Affinity On-target Cellular interaction (NanoBRET assay (HEK293T cells)) EUB0000705a CLK2
Sequence (P49760 whole entry): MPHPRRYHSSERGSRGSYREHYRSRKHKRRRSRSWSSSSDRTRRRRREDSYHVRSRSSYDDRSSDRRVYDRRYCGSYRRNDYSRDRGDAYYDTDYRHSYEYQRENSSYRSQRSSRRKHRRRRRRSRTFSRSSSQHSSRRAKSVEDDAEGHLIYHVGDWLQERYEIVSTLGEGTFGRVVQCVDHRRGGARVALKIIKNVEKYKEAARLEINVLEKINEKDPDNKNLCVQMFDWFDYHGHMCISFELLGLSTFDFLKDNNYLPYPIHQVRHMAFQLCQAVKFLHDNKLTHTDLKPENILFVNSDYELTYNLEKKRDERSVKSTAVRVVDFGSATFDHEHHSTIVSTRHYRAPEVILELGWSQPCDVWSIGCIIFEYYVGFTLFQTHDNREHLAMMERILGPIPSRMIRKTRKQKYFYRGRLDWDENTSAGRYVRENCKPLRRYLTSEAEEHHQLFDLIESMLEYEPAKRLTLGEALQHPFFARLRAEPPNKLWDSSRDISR
pIC50: −log10 of the molar value.

>  <molecule>
CN1CCN(C(=O)C(C)(C)c2ccc(C(=O)Nc3cn4cc(-c5cc(C(C)(C)C)cc(C(C)(C)C)c5)ccc4n3)cc2)CC1 [T3-CLK-N]

>  <pIC50>
< 5.00

$$$$

* * *

Molecular target: Activin receptor type-1B (Homo sapiens, UniProt P36896)
Sequence (P36896 whole entry): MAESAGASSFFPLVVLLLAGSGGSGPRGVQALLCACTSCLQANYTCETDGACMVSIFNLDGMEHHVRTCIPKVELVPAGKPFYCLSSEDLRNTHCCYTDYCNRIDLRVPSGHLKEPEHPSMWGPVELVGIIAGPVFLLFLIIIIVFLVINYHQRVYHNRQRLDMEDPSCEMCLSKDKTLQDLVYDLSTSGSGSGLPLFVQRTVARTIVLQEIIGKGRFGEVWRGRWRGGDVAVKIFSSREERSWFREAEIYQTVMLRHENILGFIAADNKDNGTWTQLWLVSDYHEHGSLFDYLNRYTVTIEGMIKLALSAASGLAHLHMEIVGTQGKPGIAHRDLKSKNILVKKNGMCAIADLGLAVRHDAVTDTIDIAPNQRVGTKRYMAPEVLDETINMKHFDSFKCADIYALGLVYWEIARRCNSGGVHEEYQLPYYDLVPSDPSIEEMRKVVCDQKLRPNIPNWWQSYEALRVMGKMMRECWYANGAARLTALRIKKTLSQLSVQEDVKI
Experiment: Affinity On-target Cellular interaction (NanoBRET assay (HEK293T cells)) EUB0000710a ACVR1B
pIC50: −log10 of the molar value.
outcomeMeasure: pIC50

>  <smilesText>
Cc1cnc(-c2cc(Cl)ccc2F)cc1-n1c(=O)n(CC(N)=O)c2ccccc21

>  <outcomeMeasure>
pIC50

>  <recordedMeasurement>
< 5.00

$$$$
